# Tested on: A549 NSCLC
# experiment.description: NCI tumour cell line growth inhibition, 48 h; in the data active = GI50 below about 0.43 µM; inactive = the rest
Your response should consist of one outcome taken from 1 (active), 0 (inactive)

What call does the record list for O=C(Nc1ccc(S(=O)(=O)Nc2nccs2)cc1)c1cccnc1Nc1cccc(Cl)c1 ?
0

What call does the record list for O=C1/C(=C/c2cccc([N+](=O)[O-])c2)COc2ccc(O)c(O)c21 ?
0

What call does the record list for O=C1c2ccccc2-c2c1c1ccccc1c(=O)n2CCCNCCCn1c2c(c3ccccc3c1=O)C(=O)c1ccccc1-2 ?
0

What call does the record list for CC/C=C\C[C@H](O)C/C=C1/C(=O)C=C[C@@H]1C/C=C\CCCC(=O)NC(C)C ?
0

What call does the record list for CCC/C(=N\NC(=S)N1CCN(c2ccccn2)CC1)c1ccccn1 ?
1

What call does the record list for OCCN(CCO)N=Nc1ccc(-c2nc3ccccc3[nH]2)cc1 ?
0

What call does the record list for COc1ccc(-c2ccc(C3CC(c4ccc(O)cc4)=NN3)o2)c([N+](=O)[O-])c1 (centres undefined) ?
0

What call does the record list for O=S(=O)([O-])[O-].[OH3+].[OH3+].[OH3+].[Ru+2].c1ccccc1 ?
0

What call does the record list for O=C(Nc1ccc(-c2nc3cc4ccccc4cc3[nH]2)cc1)c1cccc(Br)c1 ?
0

###

# System: OVCAR-5 ovarian
# experiment.description: NCI tumour cell line growth inhibition, 48 h
property: TGI

In the examples that follow, each entry is paired with its recorded TGI.
Look at this compound and give its reported TGI. C=C(O)c1ccccc1C#Cc1ccccc1C(=O)OC
> 10 µM

Look at this compound and give its reported TGI. C=C1C(=O)O[C@@H]2[C@H]3O[C@]3(C)CCC=C(C)CC[C@@H]12
63.6 µM

Look at this compound and give its reported TGI. Cc1ccc2c(c1)SSSSS2
46.9 µM

// each compound listed below needs its TGI
1. CN1CCN(Cc2ccc(-c3cc4ncnc(Nc5ccc(OCc6cccc(F)c6)c(Cl)c5)c4s3)o2)CC1
2. O=C1C2C(C(=O)N1O)N(Cc1ccccc1)C(=O)N2Cc1ccccc1 (stereo unspecified)
3. CSC(=S)c1ccc(C(=S)SC)cc1
4. NC(=O)NC(=O)c1cnccn1
5. Cc1ccc(Nc2nc(=S)[nH]c3[nH]ncc23)cc1
6. COC(=O)c1c[nH]cc1CCc1c[nH]cc1C(=O)OC
7. Cc1ccc(NC(=O)c2[nH]c(=S)nc(N)c2-c2ccccc2C)cc1C
8. S=c1ssc2c3ssc(=S)c3n(Cc3ccccc3)c12

7.8 µM
> 100 µM
> 100 µM
> 100 µM
> 100 µM
> 100 µM
> 100 µM
> 100 µM

// each compound listed below needs its TGI
1. Oc1ccc2ccccc2c1C=NCCCN=Cc1c(O)ccc2ccccc12
2. Cc1ccc(/C=C2\CN(C)CC3=C2OC(N)=C(C#N)C3c2ccc(C)cc2)cc1 (stereo unspecified)
3. COC(=O)c1ccccc1C1CN=NC12Cc1ccc3ccccc3c1C2=O (stereo unspecified)
4. CS(=O)(=O)c1ccc(Oc2cc(F)cc(C#N)c2)c2c1[C@H](O)[C@H](F)[C@@H]2F
5. Cc1c(N2C(=O)/C(=C/C=C/c3ccccc3)N=C2c2ccccc2)c(=O)n(-c2ccccc2)n1C

["81.4 µM", "55.7 µM", "> 100 µM", "> 100 µM", "51.7 µM"]

###

# Test system: KM20L2 colon
# experiment.description: NCI tumour cell line growth inhibition, 48 h
Record form. Attribute: TGI. Fill in for each entry.

Look at this molecule and give its reported TGI. O=C1NC(=O)C(C(=O)C(=O)Nc2ccc(Br)cc2)C(=O)N1
> 100 µM

Look at this molecule and give its reported TGI. CCOC(=N)CC(=O)Nc1ccc(Cl)cc1
> 100 µM

Look at this molecule and give its reported TGI. C=CC1(C)CCC(C(C)C(=O)C(C=C(C)C)OC(C)=O)C12C(=O)Oc1ccccc1C2=O (centres undefined)
> 100 µM

// each molecule listed below needs its TGI
1. Cn1ncc(=S)[nH]c1=S
2. COc1nc2c(OC)cccc2c(OC)c1C=O
3. CC(=O)N(C)OC(=O)CC(=O)c1ccccc1

> 100 µM
> 100 µM
> 100 µM

// each molecule listed below needs its TGI
1. CC(=O)Nc1ccc(/C=C(\NC(=O)c2ccccc2)c2nc3ccc4c(c3[nH]2)C(=O)c2ccccc2C4=O)cc1
2. CC1=C2C(O)C(C(C)C(=O)NCC(C)C)CCC2(C)C=CC1=O (centres undefined)
3. CC[C@@H]1C[C@@H]2CN3CCc4c([nH]c5ccc(OC)cc45)C(COC(=O)c4ccc(OC)c(OC)c4)(C2)C13
4. CC(C)C(C(=O)O)N(CC1(O)OCC(O)C(O)C1O)N=O (centres undefined)
5. COc1cccc(N2C(=O)c3c(c4[nH]c5ccccc5c4c4ccc(C(C)(C)C)cc34)C2=O)c1
6. Cc1ccc(NC(=O)c2[nH]c(=S)nc(N)c2-c2ccccc2C)cc1C

> 100 µM
> 100 µM
74.3 µM
> 100 µM
> 100 µM
> 100 µM

// each molecule listed below needs its TGI
1. CCNc1nnc(CSc2nc(-c3ccccc3)c(-c3ccccc3)[nH]2)s1
2. COc1ccc2[nH]cc(CCNC(C)=O)c2c1

1: 46.1 µM; 2: > 100 µM

###

# Test system: P388/ADR leukemia
# experiment.description: NCI tumour cell line growth inhibition, 48 h
Where a SMILES comes first, the peptide text is derived from it.
Record form. Attribute: TGI. Fill in for each entry.

Look at this compound and give its reported TGI. CC1NC(=O)CNC(=O)CNC(=O)C(Cc2ccc(O)cc2)NC(=O)C(C(C)C)NC(=O)C(C)NC1=O (centres undefined) (cyclo(GGAAVY); configuration not given here)
> 100 µM

Look at this compound and give its reported TGI. CN(C)c1nc(N(C)C)nc(N(C)C)n1
> 136 µM

Look at this compound and give its reported TGI. CC1=C2C(O)C(C(C)C(=O)NCC(C)C)CCC2(C)C=CC1=O (centres undefined)
> 100 µM

Further cases:
Look at this compound and give its reported TGI. C=C1C(=O)O[C@@H]2[C@H]3O[C@]3(C)CCC=C(C)CC[C@@H]12
27.9 µM

###

# Tested on: OVCAR-4 ovarian
# experiment.description: NCI tumour cell line growth inhibition, 48 h
property: TGI

In the examples that follow, each entry is paired with its recorded TGI.
Look at this molecule and give its reported TGI. Cc1[nH]c2ncn3nc(C(Cl)(Cl)Cl)nc3c2c1Cc1ccccc1
> 100 µM

Look at this molecule and give its reported TGI. Cn1ncc(=S)[nH]c1=S
> 100 µM

// each molecule listed below needs its TGI
1. CC(C)C[C@H](NC(=O)[C@H](Cc1ccccc1)n1ccc(N2CCCCC2)cc1=O)B(O)O
2. COc1ccc2[nH]cc(CCNC(C)=O)c2c1
3. O=C(O)c1ccc(NC(=O)C2C(=O)C(=O)N(c3ccc(C(=O)O)cc3)C2=O)cc1 (stereo not drawn)
4. C[Si](C)(C)C#CCO[Si](C)(C)C
5. C=C1C(=O)O[C@@H]2[C@H]3O[C@]3(C)CCC=C(C)CC[C@@H]12
6. Cn1cc(C(=O)c2nccc3c2cnc2ccccc23)ccc1=O
7. Cc1cc(-c2ccc(C(=O)O)[nH]2)on1
8. Nc1c(C(=O)Nc2ccccc2)sc2nc3c(cc12)CCCCCC3

1: > 100 µM; 2: > 100 µM; 3: > 100 µM; 4: > 100 µM; 5: 45.3 µM; 6: > 100 µM; 7: > 100 µM; 8: 15.7 µM

// each molecule listed below needs its TGI
1. COc1c2c(c(OC)c3c1c(=O)c1ccccc1n3C)OCO2
2. Cc1ccc(-c2c(C#N)c(-c3ccc(Cl)cc3)c(C#N)c(=O)n2NS(=O)(=O)c2ccccc2)cc1
3. O=C1C=CC(=O)c2c1ccc1c3ccccc3n(-c3ccccn3)c21
4. S=c1[nH]nc(COc2ccc3c(c2)CCCC3)n1/N=C/c1ccc(Cl)cc1
5. CCCc1c2c([nH]c(=O)c1C)C(=O)c1[nH]c(=O)c(C)c(CCC)c1C2=O
6. CCc1ccc(-c2nnc(COc3ccc(-c4nc5ccc(C)cc5[nH]4)cc3OC)o2)cc1

> 100 µM
> 100 µM
29.8 µM
32.8 µM
54.6 µM
3.53 µM

###

# Tested on: MCF7 breast
# experiment.description: NCI tumour cell line growth inhibition, 48 h
property: TGI

Look at this molecule and give its reported TGI. Oc1ccc(C(c2ccccc2)(c2ccccc2)c2ccccc2)cc1
34.3 µM

// each molecule listed below needs its TGI
1. COc1ccc(OC)c(C2CCc3nc4nc(N)nc(N)c4cc3C2)c1 (configuration not stated)
2. CNc1ccccc1C(=O)N/N=C/C=C/c1ccccc1
3. Cn1ccnc1C(=O)/C=C/c1ccc(CC(=O)Nc2ccc(Cl)cc2)cc1

1: 3.68 µM; 2: > 100 µM; 3: > 25 µM

// each molecule listed below needs its TGI
1. CC(=O)ON(OC(C)=O)c1ccc(C)cc1
2. O=C1/C(=C/c2cccc([N+](=O)[O-])c2)COc2ccc(O)c(O)c21

["> 100 µM", "2.96 µM"]
